Hello, the source for this data is ChEMBL document CHEMBL5579796, in case you need it.

Each entry below lists one item and its recorded CC50 value.
testProtocol: Cytotoxicity against african green monkey Vero E6 cells by MTT assay
Format: toxicity, cell-based, Vero C1008
details: chlorocebus sabaeus

smilesstr=CN1C[C@@H]2C[C@H](C1)c1cccc(=S)n1C2 reportedmeasurement="> 50 µM"

# input for lookup
Request: Provide only the value of recorded CC50 for CN1C[C@@H]2C[C@H](C1=S)c1cccc(=O)n1C2
Result: > 50 µM

###

Tested on: dengue virus type 2
testProtocol: Antiviral activity against DENV-2 16,681 infected in Vero E6 cells assessed as reduction in viral infection by measuring NS4B positive cells at 10 uM incubated for 4 days by immunofluorescence assay
Type: functional
Design: scale not given: the % may be the effect or the level left
details: time 4 day
quantityName: Activity (%)
Answer with a number only, understood to be in %.

Solved cases below.
smilesstr=CN1C[C@@H]2C[C@H](C1=S)c1cccc(=O)n1C2 reportedmeasurement=95
smilesstr=CN1C[C@H]2C[C@H](Cn3c2cccc3=S)C1=S reportedmeasurement=60
smilesstr=CN1C[C@@H]2C[C@H](C1=S)c1cccc(=S)n1C2 reportedmeasurement=61
smilesstr=CN1C[C@H]2C[C@H](Cn3c2cccc3=O)C1=S reportedmeasurement=64.9

# input for lookup
Request: Provide only the value of recorded Activity for CN1C[C@@H]2C[C@H](C1)c1cccc(=S)n1C2
Result: 88.7
